TARGET: T1, human galectin-10-His (recombinant human galectin-10 with TEV-cleavable N-terminal His-tag) (human)
T1 construct: SEC-MALLS: dimer in solution; also called Gal10-His; humanGal10-His
T1 chain: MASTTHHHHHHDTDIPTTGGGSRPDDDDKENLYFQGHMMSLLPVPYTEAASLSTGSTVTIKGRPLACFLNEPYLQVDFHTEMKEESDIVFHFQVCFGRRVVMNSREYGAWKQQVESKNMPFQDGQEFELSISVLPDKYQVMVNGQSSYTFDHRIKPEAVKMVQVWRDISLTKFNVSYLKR
ASSAY_EXPLANATION: ELISA, Fab on coated galectin-10-His
MEASURED_ATTRIBUTE: Bmax (OD)
All answers are understood in OD, so give the number only.

Please give the documented Bmax of 1D11 Fab (Fab, V domains shown, VH on human CH1 constant domain (with part of the hinge region), VL on human lambda constant domain; also called Fab 1D11; Fab-1D11) VH: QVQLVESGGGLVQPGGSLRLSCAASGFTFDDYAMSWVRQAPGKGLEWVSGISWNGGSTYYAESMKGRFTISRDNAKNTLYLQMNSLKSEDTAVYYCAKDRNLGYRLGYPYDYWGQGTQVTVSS VL: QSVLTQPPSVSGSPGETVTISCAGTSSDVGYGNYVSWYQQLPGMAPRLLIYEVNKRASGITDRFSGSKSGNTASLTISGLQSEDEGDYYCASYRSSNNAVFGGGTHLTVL
0.9

Every entry's value here was drawn from patent US20190367619A1.
